# measurement.notes: DUSP6 inhibitors restoring Erk phosphorylation by chemical complementation, primary imaging in DUSP6-transfected HeLa (AID 609)
# study.conditions: HeLa MKP-3 transfected, phospho-Erk imaging KS statistic; measured here: nuclear c-Myc green intensity z-score; at 10 µM; cells stimulated with TPA for 15 min
Below, each entry is listed with its recorded z-score.
The response must contain the number and no unit.

Known results for molecules:
1. CC1(C)Cc2ccccc2-c2c1c(=O)n(-c1ccccc1)c1nnnn21 : -0.29
2. COc1ccccc1C(=O)NCC(=O)n1nc(C)cc1C : 0.744
3. Cc1ccc(S(=O)(=O)NC(=O)Nc2ncc3c(n2)CC(c2ccco2)CC3=O)cc1 (stereo not given) : -1.12
4. CCN(CC)CCN1C(=O)C(O)=C(C(=O)c2cc3ccccc3o2)C1c1cccnc1 (stereo not given) : -0.722

**Q:** Give z-score for the following molecule: Cc1cc(=O)oc(C)c1C(=O)NCCc1ccccc1
**A:** 1.05

**Q:** Give z-score for the following molecule: CN(C)c1ccc(NC(=O)c2sc(SCC(=O)Nc3nccs3)nc2N)cc1
**A:** 1.63

**Q:** Give z-score for the following molecule: CCCCCOc1ccc(C(=O)NCC(=O)NCC(=O)OCC)cc1
**A:** -0.0633

**Q:** Give z-score for the following molecule: O=S(=O)(/C=C/c1ccccc1)Nc1ccc2c(c1)OCO2
**A:** -2

**Q:** Give z-score for the following molecule: COc1ccc(N2CCN(c3oc(COc4ccc(Cl)cc4)nc3C#N)CC2)cc1
**A:** 0.417

**Q:** Give z-score for the following molecule: C=CCn1c(C2CC(=O)N(c3ccc(C)cc3)C2)nc2ccccc21 (stereo not given)
**A:** -0.0771

**Q:** Give z-score for the following molecule: CN1Cc2c(N3CCOCC3)nc(SCc3ccccc3)c(C#N)c2CC1(C)C
**A:** -0.223

**Q:** Give z-score for the following molecule: C=CCn1c(-c2ccc(OC)c(OC)c2)n[nH]c1=S
**A:** -1.23

**Q:** Give z-score for the following molecule: O=c1c2ccccc2ncn1Cc1ccco1
**A:** -1.56

**Q:** Give z-score for the following molecule: O=C(C/C(=N/O)c1ccccc1O)C(F)F
**A:** 1.7

**Q:** Give z-score for the following molecule: C=CCNc1nc(C)nc(OC)n1
**A:** 2.82

**Q:** Give z-score for the following molecule: COC(=O)c1ccc(C2/C(=C(/O)c3ccc(OC)cc3)C(=O)C(=O)N2Cc2ccco2)cc1 (stereo not given)
**A:** 0.429

**Q:** Give z-score for the following molecule: CCOC(=O)C(O)(C1C(=O)CC(C)(C)CC1=O)C(F)(F)F (stereo not given)
**A:** 0.326

**Q:** Give z-score for the following molecule: CCOC(=O)c1[nH]c2ccccc2c1N=C(C)N(CC)CC
**A:** 2.66

**Q:** Give z-score for the following molecule: O=C(Cc1ccc(Cl)cc1)Nc1cccc(-c2nnc(-c3ccco3)o2)c1
**A:** 1.13

**Q:** Give z-score for the following molecule: Fc1ccc2[nH]c3c(N4CCSCC4)ncnc3c2c1
**A:** 0.444

**Q:** Give z-score for the following molecule: COc1ccc(C2C=C(c3ccc(C)cc3)Nc3ncnn32)cc1 (stereo not given)
**A:** 1.16

**Q:** Give z-score for the following molecule: COc1ccc(-c2nn(C)c(=O)c3ccccc23)cc1NS(C)(=O)=O
**A:** 0.9

**Q:** Give z-score for the following molecule: COc1ccc(/C(O)=C2/C(=O)C(=O)N(c3nc(C)c(C)s3)C2c2ccco2)cc1 (stereo not given)
**A:** -0.551

**Q:** Give z-score for the following molecule: CCCCCOc1ccccc1C(=O)NCC(=O)O
**A:** -0.72

**Q:** Give z-score for the following molecule: Cc1nc2c(o1)CCc1ccccc1C2N1CCN(C)CC1 (stereo not given)
**A:** -1.51

**Q:** Give z-score for the following molecule: Cc1ccc(-c2n[nH]c(=O)c3ccccc23)cc1S(=O)(=O)NCCN1CCOCC1
**A:** 0.423

**Q:** Give z-score for the following molecule: O=c1c2sc3nc(N4CCOCC4)c4c(c3c2ncn1Cc1ccco1)CCCC4
**A:** -0.213

**Q:** Give z-score for the following molecule: CN(Cc1ccccc1)c1ncnc2ccc(Br)cc12
**A:** -0.951

**Q:** Give z-score for the following molecule: Cc1ccc(N2C(=O)CC(Cn3nc(C)cc3C)C2=O)cc1 (stereo not given)
**A:** -0.538

**Q:** Give z-score for the following molecule: Cc1ccc2cc(CNC(C)(C)C)c(=O)[nH]c2c1
**A:** -0.75

---

# measurement.notes: inhibitors of mutant huntingtin aggregation, primary screen, imaging, exon1htt(103Q)mCFP cells, high-content imaging (AID 483);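 also: compound exposure lasted 3 days before fixation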
# study.conditions: exon1htt(103Q)mCFP cell line, aggregate imaging, at 2 µM; stronger effect = higher value
observed.property: inhibition of aggregation (%)
Quick reminder: number only, in %, skip the unit.

1) O=C(NC1CCN(Cc2ccccc2)CC1)C1CCN(S(=O)(=O)c2cccc3cccnc23)CC1 : 7.8

**Q:** Give inhibition of aggregation for the following compound: CC1=CCC(C(C)(C)NC(=O)c2ccccc2)C/C1=N\O (centres undefined)
**A:** -4.5

**Q:** Give inhibition of aggregation for the following compound: CCC(C)(C)NC(=O)CN(Cc1ccc2c(c1)OCO2)C(=O)CCC(=O)Nc1ccccn1
**A:** -0.5

**Q:** Give inhibition of aggregation for the following compound: CN1CCC(NC(=O)c2cccs2)CC1
**A:** -27.2

**Q:** Give inhibition of aggregation for the following compound: Cn1c(SCC(=O)O)nnc1C1CCCCC1
**A:** -3.7

---

# measurement.notes: inhibitors of E-selectin induction by TNFa, primary screen, imaging, HUVEC, immunofluorescence, MLSMR starter and 10KST1 sets (AID 487);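 also: signal is fraction of cell area covered by stained E-selectin grains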
# study.conditions: HUVEC TNFalpha-induced E-selectin immunofluorescence imaging, at 2 µM; stronger effect = higher value
Below, each entry is listed with its recorded inhibition.
Quick reminder: number only, in %, skip the unit.

Known results for compounds:
1) CCN(CC)CCNc1ncnc2c1[nH]c1ccc(OC)cc12 : -67.9
2) Cc1nc(SCC(=O)Nc2ccc3c(c2)OCO3)c(C#N)c2c1CCCC2 : -215
3) CC(C)C(NC(=O)c1ccccc1NC(=O)c1ccco1)C(=O)O (configuration not stated) : -32.6
4) Cc1ccc(CNC(=O)c2cc3c(=O)n4ccccc4nc3n(CC3CCCO3)c2=N)cc1 (configuration not stated) : -40.3
5) c1ccc(OCCCn2nnc(-c3cccnc3)n2)cc1 : -79.2

**Q:** Give inhibition for the following compound: CCOC(=O)N1CCC(c2cc(=O)n3[nH]c(C)c(-c4ccc(F)cc4)c3n2)CC1
**A:** -82.2

**Q:** Give inhibition for the following compound: COc1ccc(-c2nnnn2C)cc1S(=O)(=O)NCc1ccccc1
**A:** -49.3

---

# measured.on: Voltage-gated potassium channel subunit beta-2 (Rattus norvegicus) (UniProt P62483)
# Sequence (P62483 whole entry, looked up): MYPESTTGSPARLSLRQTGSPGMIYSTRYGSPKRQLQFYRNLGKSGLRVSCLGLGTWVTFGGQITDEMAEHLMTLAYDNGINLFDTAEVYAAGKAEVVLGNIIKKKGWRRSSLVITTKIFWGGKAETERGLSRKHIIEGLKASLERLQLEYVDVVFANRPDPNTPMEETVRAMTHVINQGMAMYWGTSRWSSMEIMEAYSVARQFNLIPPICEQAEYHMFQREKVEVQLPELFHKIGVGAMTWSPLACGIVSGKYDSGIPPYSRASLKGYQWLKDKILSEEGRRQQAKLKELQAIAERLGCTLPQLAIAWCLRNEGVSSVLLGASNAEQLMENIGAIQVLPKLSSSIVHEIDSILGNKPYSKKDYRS
# measurement.notes: KvBeta positive modulators, primary screen, biochemical, NADPH fluorescence (AID 623);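 also: fluorescence intensity change per second fitted from 20 to 320 s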
# study.conditions: Recombinant KvBeta, NADPH fluorescence decrease slope, 10 min; at 10 µM; stronger effect = lower value
observed.property: NADPH fluorescence slope
The response must contain the number and no unit.

**Q:** Give NADPH fluorescence slope for the following compound: CCN(c1ccc2c(c1)OCO2)S(=O)(=O)c1cc(Br)cc2c1N(C(=O)C1CC1)CC2
**A:** -0.000116

**Q:** Give NADPH fluorescence slope for the following compound: CC(=O)N1CCC(N(C(=O)Nc2ccc(C)c(C)c2)C2CCCC2)CC1
**A:** -1.2e-06

---

Below, each entry is listed with its recorded inhibition.
# measurement.notes: inhibitors of E-selectin induction by TNFa, primary screen, imaging, HUVEC, immunofluorescence, MLSMR starter and 10KST1 sets (AID 487);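 also: signal is fraction of cell area covered by stained E-selectin grains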
# study.conditions: HUVEC TNFalpha-induced E-selectin immunofluorescence imaging, at 2 µM; stronger effect = higher value
Quick reminder: number only, in %, skip the unit.

**Q:** Give inhibition for the following compound: COCCNc1oc(-c2ccc(F)cc2)nc1C#N
**A:** -48.8

**Q:** Give inhibition for the following compound: COc1ccccc1-c1nnc(SCC(=O)NC2CCCCC2)o1
**A:** -86

**Q:** Give inhibition for the following compound: OCCNCCCCOc1ccccc1F
**A:** 33.1

---

Below, each entry is listed with its recorded nuclei count.
# measurement.notes: inhibitors of mutant huntingtin aggregation, primary screen, imaging, exon1htt(103Q)mCFP cells, high-content imaging (AID 483);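 also: compound exposure lasted 3 days before fixation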;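 as to nuclei count: percent of the per-plate median nuclei count of sample wells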
# study.conditions: exon1htt(103Q)mCFP cell line, aggregate imaging, at 2 µM; measured here: cell count, toxicity
Quick reminder: number only, in %, skip the unit.

Known results for compounds:
1) CC(=O)Nc1cc2c(nc1C)nc(C)n2Cc1ccc(Br)cc1 : 92
2) O=C(c1csc2ccccc12)n1cccn1 : 99.2
3) Cc1cccc(CCNC(=O)CCc2nc(-c3ccccc3F)no2)c1 : 101

**Q:** Give nuclei count for the following compound: CCN(C(=O)c1cn(C)c(=O)c2cc(OC)c(OC)cc12)c1ccccc1C
**A:** 94.1

**Q:** Give nuclei count for the following compound: CCCOc1ccc(NC2=CC(=O)CC(C)(C)C2)cc1
**A:** 119

Value source: PubChem BioAssay
